Parameter Population Hoechst High Intensity Objects (%): see the listing below.
Tested on: U2OS
ASSAY EXPLANATION: Multiplex assay against U2OS
Type: toxicity, cell-based
TEST CONTEXT: human, 12 h, 1 µM, compound concentration 1 uM, replicate 2
Expressed in %, but write only the number.

For orientation, consider the following solved cases.
# MOLECULE, DATA VALUE
records = [
    ("CC(=O)NCCc1c(Cc2ccccc2)[nH]c2ccccc12", 2),
    ("COc1ccc2c(c1)C(C(=O)N(Cc1ccc(N(C)C)cc1)c1ccc(C(C)C)cc1)CCC2.Cl (stereo not given)", 3),
]

Alright, here's another molecule for you.
Ask: For the molecule Cc1ccc(C(C)(O)c2nc3ccccc3s2)c(C)c1 (stereo not given) , give its measured Population Hoechst High Intensity Objects (%) value.
Result: 0

---

Parameter Population Tubulin-Different-Phenotype (%): see the listing below.
Tested on: HEK-293T
ASSAY EXPLANATION: Multiplex assay against HEK293T
Assay type: toxicity, cell-based
TEST CONTEXT: human, 48 h, 10 µM, compound concentration 10 uM, replicate 1

For orientation, consider the following solved cases.
# COMPOUND, DATA VALUE
rows = [
    ("Cc1nc2ccc(Oc3ccc(F)cc3)cc2c(=O)n1C[C@H]1CCCN(C(C)C)C1.Cl", "62%"),
    ("Cc1ccc(F)cc1C(=O)Nc1ccc(C(=O)N2Cc3cccn3Cc3ccccc32)c(Cl)c1", "69%"),
    ("c1cc(OCCCN2CCCCC2)ccc1CN1CCCCC1", "28%"),
    ("N#Cc1c(N)nc(SCc2csc(-c3ccc(Cl)cc3)n2)c(C#N)c1-c1ccc(OCCO)cc1", "67%"),
]

Ask: For the compound CSc1ccccc1N1CCN(CCCCCC(=O)NC2CCCc3ccccc32)CC1.Cl (stereo unspecified) , give its measured Population Tubulin-Different-Phenotype (%) value.
Result: 67%

Ask: For the compound CC(=O)NCCc1c(Cc2ccccc2)[nH]c2ccccc12 , give its measured Population Tubulin-Different-Phenotype (%) value.
Result: 17%

---

Test system: U2OS
ASSAY EXPLANATION: Multiplex assay against U2OS
Assay type: toxicity, cell-based
TEST CONTEXT: human, 12 h, 1 µM, compound concentration 1 uM, replicate 2
So basically every entry gets a class from its Population Mitotic Cells (%), ranges being Low = under 10%, Medium = from 10% up to 20%, High = 20% and over

# COMPOUND, CLASS LABEL
rows = [
    ("CCOc1c2c(c(OCC)c3ncccc13)CN(c1ccc(CS(=O)(=O)NC(=O)Cc3ccccc3OC)cc1C)C2=O", "Low"),
    ("COc1cc(NC(=O)CCN2CCC(OC(=O)Nc3ccccc3-c3ccccc3)CC2)c(Cl)cc1CNC[C@H](O)c1ccc(O)c2[nH]c(=O)ccc12", "Medium"),
]

Ask: Categorize the following entry: O=C(NCCO)c1cccc(-c2cc(Nc3ccc(OC(F)(F)F)cc3)ncn2)c1
Result: Medium

Ask: Categorize the following entry: O=C(NCC(=O)N1CC[C@H](N[C@H]2CC[C@@](O)(c3ccc(-c4ncccn4)cn3)CC2)C1)c1cccc(C(F)(F)F)c1
Result: Low

Ask: Categorize the following entry: CC1(COc2ccc3c(c2)ncn3-c2ccc3cccc(N4CCC(N)CC4)c3n2)COC1
Result: High

Ask: Categorize the following entry: Cl.Clc1ccc2nsnc2c1NC1=NCCN1 [TIZANIDINE HYDROCHLORIDE]
Result: Medium

Ask: Categorize the following entry: CCNC1(C(N)=O)CCN(c2ncnc3c2nc(-c2ccccc2Cl)n3-c2ccc(Cl)cc2)CC1
Result: Medium
